- Tested on: EKVX
- assay-notes: NCI tumour cell line growth inhibition, 48 h
Active and inactive are the calls of the source. No stated cut-off is given here; in the data, active = GI50 up to about 1.1 µM and inactive = higher.
metric: GI50

1. Cn1c2c3ccccc3nc-2c(O)c2ccccc21 [HYDROXYCRYPTOLEPINE] :: > 100 µM (inactive)
2. CN(/N=C\c1ccc2ccccc2c1)C1=NCCN1 :: 19.8 µM (inactive)
3. CC(C(=O)NCNC(=O)c1ccccc1)C(=O)NCc1ccccc1 (stereo unspecified) :: > 100 µM (inactive)
4. O=C1CSc2sc(=S)sc2S1 :: > 100 µM (inactive)
5. COC(COC(N)=O)C1=C(N2CC2)C(=O)C(C)=C(N2CC2)C1=O (stereo unspecified) :: 0.47 µM (active)
6. CNC(=O)N(CCC#N)CCCN(C(=O)N(C)C)c1ccccc1 :: > 100 µM (inactive)
7. COc1cccc2c1C(=O)c1c(O)c3c(c(O)c1C2=O)C[C@@](O)(C(=O)CO)C[C@@H]3OC1CC(N)C(OC)C(C)O1 (stereo partly specified) :: 0.522 µM (active)
8. O=C1c2cccc3cccc(c23)C(=O)N1CCCNOCCONCCCN1C(=O)c2cccc3cccc(c23)C1=O :: > 100 µM (inactive)
9. O=P12N(CCN1c1ccccc1)CCN2c1ccccc1 :: > 100 µM (inactive)
10. Cc1c(N2C(=O)CS(=O)(=O)C2c2cccc(Oc3ccccc3)c2)c(=O)n(-c2ccccc2)n1C (stereo unspecified) :: 46.7 µM (inactive)
11. N#CCCN(CCN(C(=O)Nc1ccccc1)c1ccccc1)C(=O)Nc1ccccc1 :: 69.5 µM (inactive)
12. COC(=O)[C@@H]1c2[nH]c3ccccc3c2C[C@@H]2c3ccccc3NC(=O)[C@@H]21 :: 53.5 µM (inactive)
13. Nc1cc(CO)cc(Nc2c3ccccc3nc3ccccc23)c1 :: 16.8 µM (inactive)
14. O=C(Nc1ccccc1)c1cc(S(=O)(=O)N2CCNNC2=O)c(S)cc1Cl :: > 100 µM (inactive)
15. O=C(O)c1nc2cc(C(F)(F)F)ccc2nc1Nc1ccc(Cl)c(Cl)c1 :: 17.9 µM (inactive)
16. COc1cc(C(=O)N[C@H]2CCc3cc(OC)c(OC)c(OC)c3-c3ccc(SC)c(=O)cc32)cc(OC)c1OC :: 0.0106 µM (active)

---

- Tested on: MOLT-4
- assay-notes: NCI tumour cell line growth inhibition, 48 h
Activity calls are given as the source filed them. Rule as the data show it: active = GI50 up to about 1.1 µM and inactive = higher.
Classes used: active, inactive

1) CCC1(O)C=CC(=O)C=C1 :: inactive
2) CC(=O)OC1CCC2C(=CCC3C2(C)C(=O)CC2(C)C(C4(C)OC(C(C)C)=CC4=O)C(O)CC32C)C1(C)C (configuration not stated) :: inactive
3) COc1cccc2c1C(=O)c1c(O)c3c(c(O)c1C2=O)C[C@@](O)(C(=O)CO)C[C@@H]3OC1CC(N)C(OC)C(C)O1 (some centres not stated) :: active
4) CCCO[C@@H]1[C@@H](OC(C)=O)[C@@H](OC(C)=O)C(C)(C)/C=C/[C@H](C)C(=O)[C@@]2(OC(C)=O)C[C@@](C)(OC(C)=O)[C@H](OC(C)=O)[C@@H]2[C@H]2OC(=O)CC[C@@]12OC(=O)c1ccccc1 :: inactive
5) Oc1cc2c(cc1O)-c1[nH]ncc1CC2 :: inactive
6) CCN(CC)C(c1ccc(N(C)C)cc1)C(c1ccc(N(C)C)cc1)N(CC)CC (configuration not stated) :: inactive
7) Oc1nc(-c2ccccc2)cc(-c2ccccc2O)n1 :: inactive
8) CC(=O)Nc1ccc(Nc2cc(O)nc(O)n2)cc1 :: inactive
9) Cc1ccc(Sc2ccccc2C23OC(C)(C4C(=O)N(c5ccccc5)C(=O)C42)N(C)C3=O)cc1 (configuration not stated) :: inactive
10) Cc1cc(C)nc(NS(=O)(=O)c2ccc(Nc3c4ccccc4nc4c(C(=O)Nc5ccc(S(N)(=O)=O)cc5)cccc34)cc2)n1 :: inactive
11) CO/N=C1/c2sccc2[C@H](NC(=O)CNC(=O)OC(C)(C)C)[C@@H]1O :: inactive
12) COc1ccc(Nc2nc(N)c(C(=O)c3ccc(Cl)cc3)s2)cc1 :: active
13) N#CCCC1C(C#N)C2CC1C1C3C=CC(C3)C21 (configuration not stated) :: inactive
14) O=C1CC(O)c2c(Cl)sc(Cl)c21 (configuration not stated) :: inactive
15) COC(=O)C(C(=O)C(=O)Nc1ccccc1C(C)=O)c1nc2ccc(Cl)cc2nc1O (configuration not stated) :: inactive
16) O=c1cc(/C=C/c2ccc(O)c(O)c2)cc(/C=C/c2ccc(O)c(O)c2)o1 :: inactive
17) COc1ccc2[nH]c(Cl)c(/C=C3/C(=O)Nc4cc(C)c(OC)cc43)c2c1 :: inactive
18) CC(C)C[C@H](NC(=O)[C@H](Cc1cccc2ccccc12)NC(=O)N1CCOCC1)B(O)O :: active
19) CC12CC3(C)CC(C)(C1)CC(N=[N+]=[N-])(C2)C3 :: inactive
20) O=C(CCCNC(=O)OCc1ccccc1)OCc1ccc2c(c1)C(=O)c1ccccc1C2=O :: inactive
21) CCOc1ccccc1/N=N/c1c(-c2ccccc2)nn(C(=O)CC(=O)Nc2cccc(Cl)c2)c1-c1ccccc1 :: inactive
22) CN(Cc1ccccc1)C(=O)c1ccccc1C(=O)O :: inactive
23) O=c1c(C(c2ccc3c(c2)Cc2ccccc2-3)c2c(O)oc3ccccc3c2=O)c(O)oc2ccccc12 :: inactive
24) CO/N=C(/C(=O)OC)c1ccccc1COc1ccccc1C(F)(F)F :: inactive
25) COC(=O)C(Cc1c[nH]c2ccccc12)NC(=O)c1ccc(-c2ccc(Cl)cc2Cl)o1 (configuration not stated) :: inactive
26) N=C(N)NCCCS(=O)(=O)Nc1ccc(Nc2c3ccccc3nc3cc([N+](=O)[O-])ccc23)cc1 :: inactive
27) Cc1[nH]c(=O)[nH]c(=O)c1/C=C/C(=O)NC(CO)C[S+]([O-])C[S+](C)[O-] (configuration not stated) :: inactive
28) CCOC(=O)[C@@H]1ON2O[C@@H](OC3CCCC3(c3ccccc3)c3ccccc3)C[C@H]3OC(=O)[C@@H]1C32 (some centres not stated) :: inactive
29) COc1ccc2oc3c(OC)c(OC)c(OC)cc3c(=O)c2c1 :: inactive
30) C=CC[C@H](O)[C@@](NC(=O)OCc1ccccc1)(Sc1ccc(C)cc1)C(F)(F)F :: inactive
31) C=CCN1CN(c2ccccc2)C2(CCN(CCCC3(c4ccc(F)cc4)OCCO3)CC2)C1=O :: inactive
32) Cc1cc(=O)oc2cc(OC(=O)N(C)C)c(Cl)cc12 :: inactive
